Reported pKi values, Acetylcholinesterase (Homo sapiens).
pKi is defined as minus the log10 of a concentration measured in mol/L.

Past entries and their recorded results:
{"columns": ["STRUCTURE_STRING", "MEASURED_NUMBER"],
 "data": [
  ["CC(=O)c1ccccc1NC(=O)c1ccc(OCCCCC[n+]2ccccc2)cc1", 7.09],
  ["CC(=O)c1ccccc1NC(=O)c1ccc(OCCCC[n+]2cccc3ccccc32)cc1", 7.28],
  ["O=C(NCCc1c[nH]c2ccccc12)c1ccc(OCCCC[n+]2cccc3ccccc32)cc1", 6.91],
  ["CN(C)c1cc[n+](CCCCOc2ccc(C(=O)NCCc3c[nH]c4ccccc34)cc2)cc1", 6.70]
]}

Write down pKi measured for item `CC(=O)c1ccccc1NC(=O)c1ccc(OCCCC[n+]2ccc3ccccc3c2)cc1`
7.34

Write down pKi measured for item `CC(=O)c1ccccc1NC(=O)c1ccc(OCCCCCC[n+]2ccccc2)cc1`
7.33

Write down pKi measured for item `CC(=O)c1ccccc1NC(=O)c1ccc(OCCCCCC[n+]2ccc3ccccc3c2)cc1`
8.03

Write down pKi measured for item `CC(=O)c1ccccc1NC(=O)c1ccc(OCCCCC[n+]2cccc3ccccc32)cc1`
8.19

Write down pKi measured for item `CC(=O)c1ccccc1NC(=O)c1ccc(OCCCCC[n+]2ccc3ccccc3c2)cc1`
7.35

Write down pKi measured for item `O=C(NCCc1c[nH]c2ccccc12)c1ccc(OCCCCn2c3ccccc3c3ccccc32)cc1`
5.84

---

# SYSTEM: Cholinesterase (Homo sapiens, UniProt P06276)
# Sequence (P06276 whole entry): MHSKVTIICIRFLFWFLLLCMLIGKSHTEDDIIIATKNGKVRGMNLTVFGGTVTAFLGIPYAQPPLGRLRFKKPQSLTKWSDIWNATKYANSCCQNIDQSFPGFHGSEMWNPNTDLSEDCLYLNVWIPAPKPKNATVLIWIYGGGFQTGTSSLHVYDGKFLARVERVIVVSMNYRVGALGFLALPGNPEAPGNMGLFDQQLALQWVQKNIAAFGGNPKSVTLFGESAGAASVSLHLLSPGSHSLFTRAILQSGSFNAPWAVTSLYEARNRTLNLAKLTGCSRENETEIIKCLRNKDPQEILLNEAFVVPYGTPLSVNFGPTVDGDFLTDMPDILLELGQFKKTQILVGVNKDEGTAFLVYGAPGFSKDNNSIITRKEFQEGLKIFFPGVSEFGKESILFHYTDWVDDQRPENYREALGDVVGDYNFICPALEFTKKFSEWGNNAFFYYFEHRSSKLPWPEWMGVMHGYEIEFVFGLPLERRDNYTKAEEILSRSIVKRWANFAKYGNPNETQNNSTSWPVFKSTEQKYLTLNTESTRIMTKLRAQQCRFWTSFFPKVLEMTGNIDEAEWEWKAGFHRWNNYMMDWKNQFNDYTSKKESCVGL
ENDPOINT_NAME: pKi
pKi is defined as minus the log10 of a concentration measured in mol/L.

{"columns": ["STRUCTURE_STRING", "ENDPOINT_NAME", "MEASURED_NUMBER"],
 "data": [
  ["CC(=O)c1ccccc1NC(=O)c1ccc(OCCCCC[n+]2ccccc2)cc1", "pKi", 7.03],
  ["CC(=O)c1ccccc1NC(=O)c1ccc(OCCCCC[n+]2ccc3ccccc3c2)cc1", "pKi", 7.09]
]}

Fetch value of pKi on Cholinesterase (Homo sapiens, UniProt P06276) for `CC(=O)c1ccccc1NC(=O)c1ccc(OCCCC[n+]2ccc3ccccc3c2)cc1` .
7.25

Fetch value of pKi on Cholinesterase (Homo sapiens, UniProt P06276) for `CC(=O)c1ccccc1NC(=O)c1ccc(OCCCCCC[n+]2ccccc2)cc1` .
7.18

Fetch value of pKi on Cholinesterase (Homo sapiens, UniProt P06276) for `CC(=O)c1ccccc1NC(=O)c1ccc(OCCCCC[n+]2cccc3ccccc32)cc1` .
7.26

---

Reported IC50 values, Beta-secretase 1 (Homo sapiens, UniProt P56817).
# number only, unit µM dropped from output

{"columns": ["STRUCTURE_STRING", "SYSTEM", "RESULT_UNIT", "IC50"],
 "data": [
  ["CC(=O)c1ccccc1NC(=O)c1ccc(OCCCCC[n+]2ccccc2)cc1", "Beta-secretase 1 (Homo sapiens, UniProt P56817)", "µM", 0.31]
]}

Let's switch to this compound now.
Fetch value of IC50 on Beta-secretase 1 (Homo sapiens, UniProt P56817) for `CC(=O)c1ccccc1NC(=O)c1ccc(OCCCCC[n+]2cccc3ccccc32)cc1` .
Sequence (P56817 whole entry): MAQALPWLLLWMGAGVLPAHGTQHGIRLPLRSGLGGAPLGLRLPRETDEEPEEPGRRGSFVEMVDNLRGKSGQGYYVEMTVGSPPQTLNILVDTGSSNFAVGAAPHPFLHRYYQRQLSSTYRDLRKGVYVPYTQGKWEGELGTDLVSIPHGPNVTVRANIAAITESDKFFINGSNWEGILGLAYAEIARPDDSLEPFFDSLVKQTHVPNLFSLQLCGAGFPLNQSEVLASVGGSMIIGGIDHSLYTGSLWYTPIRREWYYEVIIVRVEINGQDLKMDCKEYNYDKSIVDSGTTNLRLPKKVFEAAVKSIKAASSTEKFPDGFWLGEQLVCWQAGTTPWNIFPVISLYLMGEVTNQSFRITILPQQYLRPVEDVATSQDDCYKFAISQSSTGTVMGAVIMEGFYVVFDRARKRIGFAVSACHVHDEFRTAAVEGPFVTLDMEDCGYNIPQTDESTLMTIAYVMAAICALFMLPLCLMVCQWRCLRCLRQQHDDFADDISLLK
85

---

Reported Ki values, Cholinesterase (Homo sapiens, UniProt P06276).
# number only, unit nM dropped from output

Write down Ki measured for item `CN(C)c1cc[n+](CCCCOc2ccc(C(=O)NCCc3c[nH]c4ccccc34)cc2)cc1`
2360

Write down Ki measured for item `O=C(NCCc1c[nH]c2ccccc12)c1ccc(OCCCC[n+]2cccc3ccccc32)cc1`
97

Write down Ki measured for item `CC(=O)c1ccccc1NC(=O)c1ccc(OCCCCCC[n+]2ccc3ccccc3c2)cc1`
99

Write down Ki measured for item `CC(=O)c1ccccc1NC(=O)c1ccc(OCCCC[n+]2cccc3ccccc32)cc1`
166
